System: Methicillin resistant Staphylococcus pseudintermedius, (C22963)
Type: cell-based
Details: 18 h
Non-standard residues stand in square brackets, D forms with d. Residues, ends and D or L forms follow the SMILES beside them. 1Nal = N[C@@H](Cc1cccc2ccccc12)C(=O)O; Nle = CCCC[C@H](N)C(=O)O
Endpoint name: MIC MRSP (µg/mL)

• CCCC[C@H](NC(=O)[C@H](CCCCN)NC(=O)[C@H](Cc1cccc2ccccc12)NC(=O)[C@H](CCCCN)NC(=O)[C@H](Cc1ccccc1)NC(=O)[C@H](Cc1cccc2ccccc12)NC(=O)[C@H](CCCCN)NC(=O)[C@@H](N)CCCCN)C(N)=O [D2L] (H-KK[1Nal]FK[1Nal]K[Nle]-NH2; N-terminus assumed) = 8

----------
Quick reference for MIC SA among some compounds
System: Staphylococcus aureus (ATCC 29213)
Format: cell-based
Conditions: ATCC 29213, 18 h
Non-standard residues stand in square brackets, D forms with d. Residues, ends and D or L forms follow the SMILES beside them. N(1-naphthylmethyl)Gly = O=C(O)CNCc1cccc2ccccc12; 1Nal = N[C@@H](Cc1cccc2ccccc12)C(=O)O; N(4-MeBn)Gly = Cc1ccc(CNCC(=O)O)cc1; Gly(N-CH2CH2OH) = O=C(O)CNCCO; Nle = CCCC[C@H](N)C(=O)O; NBuGly = CCCCNCC(=O)O; Nlys = NCCCCNCC(=O)O
Endpoint name: MIC SA (µg/mL)

- CCCCN(CC(N)=O)C(=O)CN(CCCCN)C(=O)CN(Cc1cccc2ccccc12)C(=O)CN(CCO)C(=O)CN(Cc1ccc(C)cc1)C(=O)CN(Cc1cccc2ccccc12)C(=O)CN(CCCCN)C(=O)CNCCCCN [compound 12] (H-[Nlys][Nlys][N(1-naphthylmethyl)Gly][N(4-MeBn)Gly][Gly(N-CH2CH2OH)][N(1-naphthylmethyl)Gly][Nlys][NBuGly]-NH2; N-terminus assumed): 32
- CCCC[C@H](N)C(=O)N[C@@H](CCCCN)C(=O)N[C@@H](Cc1cccc2ccccc12)C(=O)N[C@@H](CCCCN)C(=O)N[C@@H](Cc1ccccc1)C(=O)N[C@@H](Cc1cccc2ccccc12)C(=O)N[C@@H](CCCCN)C(=O)N[C@@H](CCCCN)C(N)=O [D2R] (H-[Nle]K[1Nal]KF[1Nal]KK-NH2; N-terminus assumed): 32
- CCCCN(CC(N)=O)C(=O)CN(CCCCN)C(=O)CN(Cc1cccc2ccccc12)C(=O)CN(CCCCN)C(=O)CN(Cc1ccc(C)cc1)C(=O)CN(Cc1cccc2ccccc12)C(=O)CN(CCCCN)C(=O)CN [compound 1] (H-G[Nlys][N(1-naphthylmethyl)Gly][N(4-MeBn)Gly][Nlys][N(1-naphthylmethyl)Gly][Nlys][NBuGly]-NH2; N-terminus assumed): 16

----------
System: red blood cell (RBC)
Conditions: 0.5% RBC suspension in PBS, 1 h, 37 °C, read at 414 nm, normalized to mellitin and PBS, triplicates
Non-standard residues stand in square brackets, D forms with d. Residues, ends and D or L forms follow the SMILES beside them. N(1-naphthylmethyl)Gly = O=C(O)CNCc1cccc2ccccc12; d1Nal = N[C@H](Cc1cccc2ccccc12)C(=O)O; N(4-MeBn)Gly = Cc1ccc(CNCC(=O)O)cc1; Gly(N-CH2CH2OH) = O=C(O)CNCCO; dNle = CCCC[C@@H](N)C(=O)O; NBuGly = CCCCNCC(=O)O; Nlys = NCCCCNCC(=O)O
Endpoint name: HA, percentage of hemolysis at 150 µM (%)

• CCCCN(CC(N)=O)C(=O)CN(CCCCN)C(=O)CN(Cc1cccc2ccccc12)C(=O)CN(CCO)C(=O)CN(Cc1ccc(C)cc1)C(=O)CN(Cc1cccc2ccccc12)C(=O)CN(CCCCN)C(=O)CNCCCCN [compound 12] (H-[Nlys][Nlys][N(1-naphthylmethyl)Gly][N(4-MeBn)Gly][Gly(N-CH2CH2OH)][N(1-naphthylmethyl)Gly][Nlys][NBuGly]-NH2; N-terminus assumed) = 5
• Cc1ccc(CN(CC(=O)N(CCCCN)CC(=O)N(CC(=O)N(CCCCN)CC(=O)NCC(N)=O)Cc2cccc3ccccc23)C(=O)CN(Cc2cccc3ccccc23)C(=O)CN(CCCCN)C(=O)CNCCCCN)cc1 [compound 8] (H-[Nlys][Nlys][N(1-naphthylmethyl)Gly][N(4-MeBn)Gly][Nlys][N(1-naphthylmethyl)Gly][Nlys]G-NH2; N-terminus assumed) = 49
• CCCCN(CC(N)=O)C(=O)CNC(=O)CN(Cc1cccc2ccccc12)C(=O)CN(CCCCN)C(=O)CN(Cc1ccc(C)cc1)C(=O)CN(Cc1cccc2ccccc12)C(=O)CN(CCCCN)C(=O)CNCCCCN [compound 7] (H-[Nlys][Nlys][N(1-naphthylmethyl)Gly][N(4-MeBn)Gly][Nlys][N(1-naphthylmethyl)Gly]G[NBuGly]-NH2; N-terminus assumed) = 85
• CCCCN(CC(N)=O)C(=O)CN(CCCCN)C(=O)CN(Cc1cccc2ccccc12)C(=O)CN(Cc1cccc2ccccc12)C(=O)CN(Cc1ccc(C)cc1)C(=O)CN(Cc1cccc2ccccc12)C(=O)CN(CCCCN)C(=O)CNCCCCN [compound 11] (H-[Nlys][Nlys][N(1-naphthylmethyl)Gly][N(4-MeBn)Gly][N(1-naphthylmethyl)Gly][N(1-naphthylmethyl)Gly][Nlys][NBuGly]-NH2; N-terminus assumed) = 87
• CCCC[C@@H](NC(=O)[C@@H](CCCCN)NC(=O)[C@@H](Cc1cccc2ccccc12)NC(=O)[C@@H](CCCCN)NC(=O)[C@@H](Cc1ccccc1)NC(=O)[C@@H](Cc1cccc2ccccc12)NC(=O)[C@@H](CCCCN)NC(=O)[C@H](N)CCCCN)C(N)=O [D2D] (H-[dK][dK][d1Nal][dF][dK][d1Nal][dK][dNle]-NH2) = 35
• CCCCN(CC(N)=O)C(=O)CN(CCCCN)C(=O)CN(Cc1cccc2ccccc12)C(=O)CN(CCCCN)C(=O)CN(Cc1ccc(C)cc1)C(=O)CN(Cc1cccc2ccccc12)C(=O)CNC(=O)CNCCCCN [compound 2] (H-[Nlys]G[N(1-naphthylmethyl)Gly][N(4-MeBn)Gly][Nlys][N(1-naphthylmethyl)Gly][Nlys][NBuGly]-NH2; N-terminus assumed) = 48
• CCCCN(CC(N)=O)C(=O)CN(CCCCN)C(=O)CNC(=O)CN(CCCCN)C(=O)CN(Cc1ccc(C)cc1)C(=O)CN(Cc1cccc2ccccc12)C(=O)CN(CCCCN)C(=O)CNCCCCN [compound 6] (H-[Nlys][Nlys][N(1-naphthylmethyl)Gly][N(4-MeBn)Gly][Nlys]G[Nlys][NBuGly]-NH2; N-terminus assumed) = 6
